B1: tRNA (parent)
chain: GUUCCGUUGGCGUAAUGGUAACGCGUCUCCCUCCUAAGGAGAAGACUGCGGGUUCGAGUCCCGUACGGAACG

- Variants of: B1
- ASSAY_NAME: yeast fitness relative to wild type (ratio to wild type); higher = fitter; tRNA-Arg(CCU), competitive growth, 37 C, YPD
This sample holds only a part of the variants without activity.
VALUE_KIND: yeast fitness

record_sequence="GUCCGGUUGGCGUAAUCGUAACGCGUCUUCCUCCUAAGGAGAAGACUGCGGGUUCGAGUCCCGUACGGAACG [U3C C5G G17C C29U]" relation_sign=≤ val=0.5
record_sequence="GUUCCGUUGGCGUAAUGGUAAGGCGUCUCCCUCCUAAGGAGAGGACUGCGGGUUUGAGUCCCGGACGGAACG [C22G A43G C55U U64G]" relation_sign=≤ val=0.5
record_sequence="GUACCGUUGGCGUAAUGGUAACGCGUCUCCCUCCUAAGGAGAAGUGUGCGGAUUCGAGUCCCGUACGGAACG [U3A A45U C46G G52A]" relation_sign== val=0.613
record_sequence="GUUCCGUAGGAGUAAUGGUAACGCGUCUCCCUCCUGAGGAGAAGACUGCGGGUUCGAGUCGCGUACGGAACG [U8A C11A A36G C61G]" relation_sign=≤ val=0.5
record_sequence="GGUCCGUUGGAGUAAUGGUAACGAGACUCCCUCCUAAGGAGAACACUGCGGGUUCGAGUCCCGUACGGAACG [U2G C11A C24A U26A G44C]" relation_sign=≤ val=0.5
record_sequence="GUUCCGAUGGGGUAAUGGUAACGCGUCUCCCUCCUUAGGAGAAGACUGCGGGUUCGCGUCCCGUACGGAACG [U7A C11G A36U A57C]" relation_sign=≤ val=0.5
record_sequence="GUUCCGUUGGGGUAAUGGUAACGCGUCUCCCUCCUAAGCAGAAGACUGCGGGUUCGAGUCCCGUACGGAACG [C11G G39C]" relation_sign== val=0.6
record_sequence="GUUCCGUUGGCGUAAUGGUAACGCGUCUCCGUCCUAAGGAGAAGUCUGGGGGUUCGAGUCCCGUACGGAUCG [C31G A45U C49G A70U]" relation_sign=≤ val=0.5
record_sequence="GUUCCGUUGGCGUCAUGGUAACGCGUCUCCCUCCUAAGAAGAAGACUGCGGGUUCGAGUCCCGUACGGAACG [A14C G39A]" relation_sign== val=0.754
record_sequence="GUUCCGUAGGAGUAAUGGUAACGCGUCUCCGUCCUAAGGAGAAGACUGCGGGUUCGAGUCCCGUACGGAACG [U8A C11A C31G]" relation_sign=≤ val=0.5
record_sequence="GUUCCGUUGGCGUAAUGGUAACGCGUCUCCCUCCUAAGGAGAAGACUGCAGGUUCGUGUCCCGUACGGAACG [G50A A57U]" relation_sign== val=0.6
record_sequence="GUUCCGUUGGCGUAAUGGUAACGCGUCUCCCUCCAAAGGAGUUGACUGCGGGUUCGAGUCCCGUACGGAACG [U35A A42U A43U]" relation_sign=≤ val=0.5
record_sequence="GUUCCGUUGGCGUAAUGGUAACGCGUCUCCCUCCUAAGGACAUGACUGCGGGUUCGAGUCCCGUACGUAACG [G41C A43U G68U]" relation_sign=≤ val=0.5
record_sequence="GUUCCGUUGGCGUAAUGGUAACGCGUCUCCCUCCUGAGGAGAGGACUGCGGGUUCGCGUCCCGUUCGGAACG [A36G A43G A57C A65U]" relation_sign=≤ val=0.5
record_sequence="GUUCCGUGGGCGUUAUGGUAACGCGUCUCCCUCCUAAGGAGAAGACUGCAGGUUCGUGUCCCGUACGGAGCG [U8G A14U G50A A57U A70G]" relation_sign=≤ val=0.5
record_sequence="GUUCCGCUGGCGUAAUGGUAACGCGUCUUCCUCCUAAGGAGAAGACUGCGGGUUCGAGUCCCGUACGGAACG [U7C C29U]" relation_sign== val=0.754
record_sequence="GUUCCGGUGGCGUAAUGGUAACGCGUCUCCUUGCUAAGGAGUAGACUGCGGGUUCGAGUCCCGUACGGAACG [U7G C31U C33G A42U]" relation_sign== val=0.563
record_sequence="GUUCCGUUGGCGUUAUGGUAACUCGUCUCCCUCCUAAGGAGAAGACUGCGGGUUCGAGUCCCGUACGCAACG [A14U G23U G68C]" relation_sign== val=0.514
record_sequence="GUUCCGUUGGCGUAAUGGUAACACGUCUCCCUCCUAAGGGGAAGCCUGCGGGUUCGAGUCCCGUACGGAACG [G23A A40G A45C]" relation_sign=≤ val=0.5
record_sequence="GUUCCGUUGGCGUAAUGGUAACGUGUCUCCCUCCUAAGGAGAAGACUGCGGGUUCGAGUCCCGUACGGACCG [C24U A70C]" relation_sign== val=1.04
record_sequence="GUUCCGUUGGCGUAAUGGUAACGCGUCUCCCUGCUAAGGAGAAGACUGCGGGUUCGAGUCCCGUUCGGAACG [C33G A65U]" relation_sign== val=0.728
record_sequence="GCUCGGUUGGCGUGAUGGUAACGCGUCUCCCUCCUAAGGAGAAGACUGCGGGUUCGAGUCCCGUACGGAACG [U2C C5G A14G]" relation_sign== val=0.559
record_sequence="GUUCGGUUGGCGUAAUGGUUACGCGUCUCUCUCCUAAGGAGAAGACUGCGGGUUCGAGUCCCGUACGGAACG [C5G A20U C30U]" relation_sign=≤ val=0.5
record_sequence="GUUCCGUUCGCGUAGUGGUAACGCGUCUCUCUCCUAAGGAGAAGAAUGCGGGUACGGGUCCCGUACGGAACG [G9C A15G C30U C46A U54A A57G]" relation_sign=≤ val=0.5
record_sequence="GUUACGUUGGCGUAAUGGUCACGCGUUUCCCUCCUAAGGAGAAGACUGCAGGUUCGAGUCCCGUACGGAACG [C4A A20C C27U G50A]" relation_sign== val=0.597
record_sequence="GUUACGUUGGCGUAAUGCUAACGCGUCUCCCUUCUAAGGAGAAGACUGCGGGUUCGAGACCCGUACGGAACG [C4A G18C C33U U59A]" relation_sign=≤ val=0.5
record_sequence="GUUCCGUUGGAGUAAUGGGAACGCGUCUCCCUCCUGAGGAGAAGACUGCGGGUUCGAGUCCCGUAUGGAACG [C11A U19G A36G C66U]" relation_sign=≤ val=0.5
record_sequence="GUUCCGUUGGCGUAAUGGUAACGCGUUUCCCUCCUAAGGAGAAGACUGCGGGUUUGAGUCCCGUACCGAACG [C27U C55U G67C]" relation_sign== val=0.572
record_sequence="GUUCCGUUGGCGUAAUGGUAACGCGUCUCCCUCCUAAGGAGAAGAAUGCGGGUUCGAGUCCCGUACCGAACG [C46A G67C]" relation_sign== val=0.896
record_sequence="GUUGCGUUGGCAUAAUGGUAACGUGUCUCCCUCCUAAGGAGAAGACUGCGGGUUCGAGUCCCGUACGGACCG [C4G G12A C24U A70C]" relation_sign=≤ val=0.5
record_sequence="GUUCCGUUGGCGUAAUGGUAACGCGUCUCCCUUCUAAGGAGAAGACUGCGGGUUAGAGUCCCGUAUGGAACG [C33U C55A C66U]" relation_sign== val=0.562
record_sequence="GUUCCGUUGACGUAAUGGUAACACGUCUCCCUCCUAAGGAGAAGACUGCGGGUUCGAGUCCCGUACGGAACG [G10A G23A]" relation_sign== val=0.534
record_sequence="GUUCCGUUGGCGUAAUGGUAACGCGUCUCCCUCCUAAGGAAAAGACUGCCGGUUCGAGUCCCGUACGGAACG [G41A G50C]" relation_sign== val=0.676
record_sequence="GUUCCGUUGGCGUAAUAGUAACGCGUCUCCCACCUAAGGAGAAGACUGCGGGUCCGAGUCCCGUACGGAACG [G17A U32A U54C]" relation_sign=≤ val=0.5
record_sequence="GUACCGUUGGCGUAAUGGUAACGCGUCUCCCUCCUAAGGAGAAGACUGCGGGUUCGAGUCUCGUACGGAACG [U3A C61U]" relation_sign== val=0.924
record_sequence="GUUCCGUUGGCGUAAUGGUAACGCGUCUCCCUCCUUAGGAGAACUCUGCGGGUUCGAGUCCUGUACGAAACG [A36U G44C A45U C62U G68A]" relation_sign== val=0.789
record_sequence="GUUCGGUUGGCGUAAUGGUAACGCGUCACCCUCCUAAGGCGAAGACUGCGGGUUCGAGUCCCGUACGGAACG [C5G U28A A40C]" relation_sign== val=0.581
record_sequence="GUUCCGUUGACGUACUGGUAACGCGUCUCCCUCCUACGGAGAAGACUGCGGGUUCGAGUCCAGUACGGAACG [G10A A15C A37C C62A]" relation_sign== val=0.636
record_sequence="GUUCCGUAGGCGUCAUGGUAACGCGUCUCCAUCCUAAGGAGAAGACUGCGGGUUCGAGUCCCGUACGGAACG [U8A A14C C31A]" relation_sign== val=0.571
record_sequence="GUUCCGUUGCCGUAAUAGUUACGCGUCUCCCUCCUAAGGAGAAGACUGCGGGUUCGAGUCCCGUACGGAACG [G10C G17A A20U]" relation_sign=≤ val=0.5
record_sequence="GUUACGUUGGCGUAAUGGUAACGCCUCUCCCUCCUAAGGAGAAGACUGCGGGUUCGAGUCACGUACGGAACG [C4A G25C C61A]" relation_sign== val=0.694
record_sequence="GUUCCGUUGGCGUAAUGGUAACGCGUCUCCCUCCUAAGGAGAACAUUGCGGGUUCGAGUCCGGUACGGAACG [G44C C46U C62G]" relation_sign== val=0.787
record_sequence="GUUCCGUUGGCGUAAUGGUAACGUAUCUCUCUCCUAAGGAGAAGAAUGCGGGUUCGAGUCCCGUACGGUACG [C24U G25A C30U C46A A69U]" relation_sign== val=0.611
record_sequence="GUUUGGUUGGCGUAAUGGUAACGCGUCUGCGUCCUACGGAGAAGACUGCGGGUUCGAGUCCCGUAAGGAACG [C4U C5G C29G C31G A37C C66A]" relation_sign== val=0.66
record_sequence="GUUCCGUUGGCGUAAUGGUUACGCGUCUCUCUCCGUAGGAGAAGACUGCGGGUUCGAGUCCCGUACGGAACG [A20U C30U U35G A36U]" relation_sign=≤ val=0.5
record_sequence="GUUCCGUUGGCGUAAUGGUAACGCGUCUCCCUCCUAAGGAGUAGACUGCGGGUUGGAGUCCCGUACGGAACG [A42U C55G]" relation_sign== val=0.616

The values you see were collected from the RNAGym collection of RNA variant scans (doi:10.1126/science.aae0568).
